system: thrombosis of artery-vein bypass in rats; test: Effects on thrombosis of artery-vein bypass in rats; assay type: in vivo, SD rats; conditions: 50 mg/kg by gavage, once per day for 3 days
Property: Dry-weight of thrombus (mg)
Number only, in mg; omit the unit.

- Compound: "CCC/C=C1/OC(=O)c2ccccc21 [3-n-butenylphthalide]"
  Measured On: "thrombosis of artery-vein bypass in rats"
  Dry-weight of thrombus [mg]: 28.6
- Compound: "CCCCC(=O)c1ccccc1C(=O)O [Calcium 2-(α-n-pentanonyl)benzoate, calcium 2-(α-n-pentanonyl)benzoate]"
  Measured On: "thrombosis of artery-vein bypass in rats"
  Dry-weight of thrombus [mg]: 40.2
- Compound: "CCCCC(=O)c1ccccc1C(=O)[O-].[K+] [Potassium 2-(α-n-pentanonyl)benzoate, potassium 2-(α-n-pentanonyl)benzoate]"
  Measured On: "thrombosis of artery-vein bypass in rats"
  Dry-weight of thrombus [mg]: 38.3
- Compound: "CCCCC(=O)c1ccccc1C(=O)O.CCCCC(=O)c1ccccc1C(=O)O.c1ccc(CNCCNCc2ccccc2)cc1"
  Measured On: "thrombosis of artery-vein bypass in rats"
  Dry-weight of thrombus [mg]: 39.0

With those in mind, consider the next compound.
Hello, please tell me recorded Dry-weight of thrombus for this one: CCCCC(=O)c1ccccc1C(=O)[O-].[Na+] [Sodium 2-(α-n-pentanonyl)benzoate, sodium 2-(α-n-pentanonyl)benzoate]
26.2
